- System: 931267-113-T-J1-PDC KRAS spheroid with HUVEC/MSC, viability
- ASSAY INFO: Anticancer human tumor 931267-113-T-J1-PDC patient-derived colon adenocarcinoma cell line growth inhibition [KRAS2]; active = viability on the fitted dose curve at most 10% of control; inactive = the rest
- TEST SETTINGS: second compound 10 µM; first compound 10 µM
In this exercise, the only acceptable responses are active, inactive

Data request: Test call for this molecule, please: COc1cc2nccc(Oc3ccc(NC(=O)C4(C(=O)Nc5ccc(F)cc5)CC4)cc3)c2cc1OC + CNCc1ccccc1-c1csc(C(C)Nc2nc(C)nc3cc(OC)c(OC)cc23)c1
Data returned: active

Data request: // param item: COC(=O)c1ccc2c(C(=Nc3ccc(N(C)C(=O)CN4CCN(C)CC4)cc3)c3ccccc3)c(O)[nH]c2c1 + COc1cc2nc(C)nc(NC(C)c3cc(N)cc(C(F)(F)F)c3)c2cc1OC1CCOC1 ; yields the recorded call
Data returned: active

====

Listed here: items and their measured viability, T/C.
- Test system: 931267-113-T-J1-PDC KRAS spheroid with HUVEC/MSC, viability
- ASSAY INFO: Anticancer human tumor 931267-113-T-J1-PDC cell line growth inhibition [KRAS2];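 note: compound exposure lasted 7 days before the readout; 100% = DMSO vehicle control viability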
- TEST SETTINGS: second compound 0.0316 µM; first compound 0.00316 µM; active compounds read low
Reply numerically in %, unit not repeated.

Data request: Provide value of viability, T/C for this record tested with 931267-113-T-J1-PDC KRAS spheroid with HUVEC/MSC, viability: CCN1CCN(Cc2ccc(Nc3ncc(F)c(-c4cc(F)c5nc(C)n(C(C)C)c5c4)n3)nc2)CC1 + C=CC(=O)N1CCN(c2nc(OCC3CCCN3C)nc3c2CCN(c2cccc4cccc(C)c24)C3)CC1CC#N
Data returned: 108

Data request: Missing value: viability, T/C, 931267-113-T-J1-PDC KRAS spheroid with HUVEC/MSC, viability, entry Cn1ncnc1[C@H]1c2n[nH]c(=O)c3cc(F)cc(c23)N[C@@H]1c1ccc(F)cc1 + C=CC(=O)N1CCN(c2nc(OCC3CCCN3C)nc3c2CCN(c2cccc4cccc(C)c24)C3)CC1CC#N . Fill in?
Data returned: 90

Data request: API: value(readout= viability, T/C, system= 931267-113-T-J1-PDC KRAS spheroid with HUVEC/MSC, viability, query= CN(C)C/C=C/C(=O)Nc1cc2c(Nc3ccc(F)c(Cl)c3)ncnc2cc1O[C@H]1CCOC1 + C=CC(=O)N1CCN(c2nc(OCC3CCCN3C)nc3c2CCN(c2cccc4cccc(C)c24)C3)CC1CC#N )
Data returned: 98.2

Data request: Tell me reported viability, T/C for CC(=O)Nc1cccc(-n2c(=O)n(C3CC3)c(=O)c3c(Nc4ccc(I)cc4F)n(C)c(=O)c(C)c32)c1 + C=CC(=O)N1CCN(c2nc(OCC3CCCN3C)nc3c2CCN(c2cccc4cccc(C)c24)C3)CC1CC#N , tested with 931267-113-T-J1-PDC KRAS spheroid with HUVEC/MSC, viability.
Data returned: 54.7

Data request: Quick check: viability, T/C on 931267-113-T-J1-PDC KRAS spheroid with HUVEC/MSC, viability, item CC(C)n1nc(-c2ccc3oc(N)nc3c2)c2c(N)ncnc21 + C=CC(=O)N1CCN(c2nc(OCC3CCCN3C)nc3c2CCN(c2cccc4cccc(C)c24)C3)CC1CC#N ?
Data returned: 71.1
